biological target: hTRPA1 (Homo sapiens, UniProt O75762); construct: expressed in transfected cells; host or cells: Xenopus laevis oocytes (injected); test: AITC-evoked currents in TRPA1-expressing Xenopus oocytes; assay type: cell-based; conditions: VGAs 0.5-0.65 mM, AITC 10 μM
Sequence (O75762 whole entry): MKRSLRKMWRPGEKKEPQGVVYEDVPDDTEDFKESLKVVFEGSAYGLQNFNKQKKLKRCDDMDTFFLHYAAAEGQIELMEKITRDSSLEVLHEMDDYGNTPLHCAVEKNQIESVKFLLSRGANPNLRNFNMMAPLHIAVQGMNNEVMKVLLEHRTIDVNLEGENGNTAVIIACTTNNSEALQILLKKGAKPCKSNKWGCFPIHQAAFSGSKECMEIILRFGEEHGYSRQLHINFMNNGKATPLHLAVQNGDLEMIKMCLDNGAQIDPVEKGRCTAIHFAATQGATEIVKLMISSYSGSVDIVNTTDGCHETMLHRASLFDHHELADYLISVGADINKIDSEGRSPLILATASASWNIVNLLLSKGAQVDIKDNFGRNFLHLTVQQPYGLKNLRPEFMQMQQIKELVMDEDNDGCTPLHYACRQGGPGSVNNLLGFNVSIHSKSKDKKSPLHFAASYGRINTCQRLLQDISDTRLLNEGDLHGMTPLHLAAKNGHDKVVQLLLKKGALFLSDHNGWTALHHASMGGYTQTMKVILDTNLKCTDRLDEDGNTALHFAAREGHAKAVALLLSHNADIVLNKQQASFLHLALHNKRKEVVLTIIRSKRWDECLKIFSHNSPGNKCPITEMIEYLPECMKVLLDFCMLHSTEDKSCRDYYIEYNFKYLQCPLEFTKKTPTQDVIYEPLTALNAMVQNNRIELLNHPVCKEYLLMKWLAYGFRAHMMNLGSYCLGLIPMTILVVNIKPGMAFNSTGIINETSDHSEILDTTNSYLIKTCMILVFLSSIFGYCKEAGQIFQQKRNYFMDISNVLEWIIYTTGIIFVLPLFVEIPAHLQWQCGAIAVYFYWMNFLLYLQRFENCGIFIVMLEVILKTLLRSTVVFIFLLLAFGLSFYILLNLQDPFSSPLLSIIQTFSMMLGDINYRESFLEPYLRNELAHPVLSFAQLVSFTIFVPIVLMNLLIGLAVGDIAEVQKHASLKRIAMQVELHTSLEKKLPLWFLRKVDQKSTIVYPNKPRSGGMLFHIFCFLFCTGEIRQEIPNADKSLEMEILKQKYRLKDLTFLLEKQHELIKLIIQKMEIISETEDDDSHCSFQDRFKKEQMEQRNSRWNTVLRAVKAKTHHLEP

>  <compound>
FCOC(C(F)(F)F)C(F)(F)F

>  <target desc>
hTRPA1 (Homo sapiens, UniProt O75762)

>  <Effect on AITC-evoked currents>
did not

$$$$
>  <compound>
COC(F)(F)C(Cl)Cl

>  <target desc>
hTRPA1 (Homo sapiens, UniProt O75762)

>  <Effect on AITC-evoked currents>
did not

$$$$
>  <compound>
FC(F)OC(F)C(F)(F)F (stereo not shown)

>  <target desc>
hTRPA1 (Homo sapiens, UniProt O75762)

>  <Effect on AITC-evoked currents>
markedly enhanced

$$$$
>  <compound>
FC(F)OC(Cl)C(F)(F)F (stereo not shown)

>  <target desc>
hTRPA1 (Homo sapiens, UniProt O75762)

>  <Effect on AITC-evoked currents>
markedly enhanced

$$$$
